Kindly supply the reported pIC50 values for the records listed here.
Tested on: T47D
Assay: Antiproliferative activity against human T47D cells assessed as reduction in cell viability
# reply with the number alone; pIC50 is -log10 of concentration in mol/L

Enquiry: Sample "COc1cc(F)ccc1[C@H]1CSc2cc(O)ccc2[C@H]1c1ccc(OCCN2CC(CF)C2)cc1" — what was its pIC50?
Return: 8.40

Enquiry: Sample "Oc1ccc2c(c1)SC[C@H](c1cc(F)c(F)cc1F)[C@@H]2c1ccc(OCCN2CC(CF)C2)cc1" — what was its pIC50?
Return: 8.40

---

Assay: Half life in Sprague-Dawley rat plasma at 20 mg/kg, po measured for 10 hrs by LC-MS/MS analysis
Format: ADME, organism-based
assay readout: half-life
Be sure to follow the number with its unit.

Enquiry: Sample "COc1cc(F)ccc1[C@H]1CSc2cc(O)ccc2[C@H]1c1ccc(OCCN2CC(CF)C2)cc1" — what was its half-life?
Return: 5.6 h

---

Assay: Cmax in Sprague-Dawley rat plasma at 20 mg/kg, po measured for 10 hrs by LC-MS/MS analysis
Type: ADME, organism-based
assay readout: Cmax (ng/mL)
Kindly provide the numeric value in ng/mL only, without the unit symbol.

Enquiry: Sample "COc1cc(F)ccc1[C@H]1CSc2cc(O)ccc2[C@H]1c1ccc(OCCN2CC(CF)C2)cc1" — what was its Cmax?
Return: 509

---

Target: Voltage-gated inwardly rectifying potassium channel KCNH2 (Homo sapiens, UniProt Q12809)
Sequence (Q12809 whole entry): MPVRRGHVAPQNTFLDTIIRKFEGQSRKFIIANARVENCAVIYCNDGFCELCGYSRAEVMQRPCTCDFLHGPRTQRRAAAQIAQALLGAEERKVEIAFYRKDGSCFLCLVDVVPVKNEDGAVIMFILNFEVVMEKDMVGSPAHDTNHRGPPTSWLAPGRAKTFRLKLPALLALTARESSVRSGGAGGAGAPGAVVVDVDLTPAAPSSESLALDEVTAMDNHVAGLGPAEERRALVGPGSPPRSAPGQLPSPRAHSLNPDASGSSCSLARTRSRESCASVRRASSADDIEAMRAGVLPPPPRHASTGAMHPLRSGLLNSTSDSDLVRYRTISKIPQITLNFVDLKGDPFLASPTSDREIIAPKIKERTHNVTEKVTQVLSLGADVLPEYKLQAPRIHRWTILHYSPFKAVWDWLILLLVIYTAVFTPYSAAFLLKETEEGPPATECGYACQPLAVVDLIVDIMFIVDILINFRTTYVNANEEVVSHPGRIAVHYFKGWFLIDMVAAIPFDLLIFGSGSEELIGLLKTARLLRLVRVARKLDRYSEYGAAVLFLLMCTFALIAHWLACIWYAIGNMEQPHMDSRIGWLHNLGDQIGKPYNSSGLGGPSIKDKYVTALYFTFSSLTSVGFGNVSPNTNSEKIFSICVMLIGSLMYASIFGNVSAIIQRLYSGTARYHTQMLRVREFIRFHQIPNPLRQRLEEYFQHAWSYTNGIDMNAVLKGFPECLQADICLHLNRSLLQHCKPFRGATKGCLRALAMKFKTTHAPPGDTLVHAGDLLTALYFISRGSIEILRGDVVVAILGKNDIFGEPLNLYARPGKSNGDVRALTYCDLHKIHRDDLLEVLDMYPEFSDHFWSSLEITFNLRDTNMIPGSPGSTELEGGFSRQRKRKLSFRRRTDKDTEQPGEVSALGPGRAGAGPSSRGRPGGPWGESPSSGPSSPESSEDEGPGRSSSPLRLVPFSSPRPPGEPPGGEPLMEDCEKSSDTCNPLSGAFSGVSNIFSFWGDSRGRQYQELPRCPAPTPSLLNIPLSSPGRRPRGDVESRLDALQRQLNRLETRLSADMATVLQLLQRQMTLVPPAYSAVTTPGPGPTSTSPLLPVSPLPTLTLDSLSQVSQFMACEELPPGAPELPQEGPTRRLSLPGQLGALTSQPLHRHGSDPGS
Test: Inhibition of hERG expressed in CHO cells assessed as inhibition of channel current by automated Qpatch clamp analysis
assay readout: pIC50
# reply with the number alone; pIC50 is -log10 of concentration in mol/L

Enquiry: Sample COc1ccc([C@H]2COc3cc(O)ccc3[C@H]2c2ccc(OCCN3CC(CF)C3)cc2)c(F)c1 (racemic) — what was its pIC50?
Return: 5.46

Enquiry: Sample Oc1ccc2c(c1)OC[C@H](c1ccc(F)cc1F)[C@@H]2c1ccc(OCCN2CC(CF)C2)c(F)c1 (racemic) — what was its pIC50?
Return: 5.19

---

Experiment: Tmax in Sprague-Dawley rat brain at 20 mg/kg, po measured for 10 hrs by LC-MS/MS analysis
Format: ADME, organism-based
assay readout: Tmax (h)
Kindly provide the numeric value in h only, without the unit symbol.

Enquiry: Sample "COc1cc(F)ccc1[C@H]1CSc2cc(O)ccc2[C@H]1c1ccc(OCCN2CC(CF)C2)cc1" — what was its Tmax?
Return: 6

---

Experiment: Tmax in Sprague-Dawley rat plasma at 10 mg/kg, po measured for 24 hrs by LC-MS/MS analysis
Format: ADME, organism-based
assay readout: Tmax

Enquiry: Sample "COc1cc(F)ccc1[C@H]1CSc2cc(O)ccc2[C@H]1c1ccc(OCCN2CC(CF)C2)cc1" — what was its Tmax?
Return: 3 h

---

Biological target: Voltage-gated inwardly rectifying potassium channel KCNH2 (Homo sapiens)
Experiment: Inhibition of hERG expressed in CHO cells assessed as inhibition of channel current by automated Qpatch clamp analysis
pIC50: −log10 of the molar value.
pIC50 below 5 gives no (0); pIC50 at or above it gives yes (1).

Enquiry: Please indicate if the recorded pIC50 for Oc1ccc2c(c1)OC[C@H](c1ccc(F)cc1F)[C@@H]2c1cc(F)c(OCCN2CC(CF)C2)c(F)c1 (racemic) meets or exceeds 5.
Return: yes (1)

Enquiry: Please indicate if the recorded pIC50 for COc1cc(F)ccc1[C@H]1CSc2cc(O)ccc2[C@H]1c1ccc(NC2CN(CCCF)C2)cc1 (racemic) meets or exceeds 5.
Return: no (0)

Enquiry: Please indicate if the recorded pIC50 for Oc1ccc2c(c1)OC[C@H](c1cc(F)c(F)cc1F)[C@@H]2c1ccc(OCCN2CC(CF)C2)cc1 (racemic) meets or exceeds 5.
Return: yes (1)

Enquiry: Please indicate if the recorded pIC50 for COc1cc(F)ccc1[C@H]1CS(=O)(=O)c2cc(O)ccc2[C@H]1c1ccc(OCCN2CC(CF)C2)cc1 (racemic) meets or exceeds 5.
Return: no (0)

Enquiry: Please indicate if the recorded pIC50 for Oc1ccc2c(c1)OC[C@H](c1ccc(F)cc1F)[C@@H]2c1ccc(NC2CN(CCCF)C2)cc1 (racemic) meets or exceeds 5.
Return: yes (1)

Enquiry: Please indicate if the recorded pIC50 for COc1cc(F)ccc1[C@H]1CSc2cc(O)ccc2[C@H]1c1ccc(OCCN2CC(CF)C2)cc1 (racemic) meets or exceeds 5.
Return: no (0)

Enquiry: Please indicate if the recorded pIC50 for COc1cc(F)ccc1[C@H]1COc2cc(O)ccc2[C@H]1c1ccc(OCCN2CC(CF)C2)cc1 (racemic) meets or exceeds 5.
Return: yes (1)

Enquiry: Please indicate if the recorded pIC50 for Oc1ccc2c(c1)OC[C@H](c1ccc(F)cc1F)[C@@H]2c1ccc(OCCN2CC(CF)C2)cc1F (racemic) meets or exceeds 5.
Return: yes (1)

---

Test system: MCF7
Assay: Antiproliferative activity against human MCF7 cells assessed as reduction in cell viability incubated for 6 days by CellTiter-Glo reagent based luminescence analysis
Conditions: Homo sapiens, MCF7, 144 h
assay readout: IC50 (nM)
Kindly provide the numeric value in nM only, without the unit symbol.

Enquiry: Sample COc1cc(F)ccc1[C@H]1CSc2cc(C(=O)O)ccc2[C@H]1c1ccc(OCCN2CC(CF)C2)cc1 (racemic) — what was its IC50?
Return: 1.7

Enquiry: Sample COc1cc(F)ccc1[C@H]1COc2cc(O)ccc2[C@H]1c1ccc(OCCN2CC(CF)C2)cc1 (racemic) — what was its IC50?
Return: 0.56

Enquiry: Sample Cc1cc(F)ccc1[C@H]1CSc2cc(O)ccc2[C@H]1c1ccc(OCCN2CC(CF)C2)cc1 (racemic) — what was its IC50?
Return: 0.8

Enquiry: Sample CC(=O)N1CCC([C@H]2COc3cc(O)ccc3[C@H]2c2ccc(OCCN3CC(CF)C3)cc2)CC1 (racemic) — what was its IC50?
Return: 9.5

Enquiry: Sample CC1(C)C[C@H](c2ccc(F)cc2F)[C@H](c2ccc(OCCN3CC(CF)C3)cc2)c2ccc(O)cc21 (racemic) — what was its IC50?
Return: 8.8

Enquiry: Sample Oc1ccc2c(c1)SC[C@H](c1cc(F)c(F)cc1F)[C@@H]2c1ccc(OCCN2CC(CF)C2)cc1 (racemic) — what was its IC50?
Return: 0.4

Enquiry: Sample "COc1cc(F)ccc1[C@@H]1CSc2cc(O)ccc2[C@@H]1c1ccc(OCCN2CC(CF)C2)cc1" — what was its IC50?
Return: 25

Enquiry: Sample COc1cc(F)ccc1[C@H]1CSc2cc(O)ccc2[C@H]1c1ccc(NC2CN(CCCF)C2)cc1 (racemic) — what was its IC50?
Return: 0.9

---

System: MCF7
Test: Antiproliferative activity against human MCF7 cells assessed as reduction in cell viability incubated for 6 days by CellTiter-Glo reagent based luminescence analysis
Settings: Homo sapiens, MCF7, 144 h
assay readout: pIC50
# reply with the number alone; pIC50 is -log10 of concentration in mol/L

Enquiry: Sample Cn1cc([C@H]2COc3cc(O)ccc3[C@H]2c2ccc(OCCN3CC(CF)C3)cc2)cn1 (racemic) — what was its pIC50?
Return: 7.42

Enquiry: Sample "Oc1ccc2c(c1)OCC(c1ccc(F)cc1F)=C2c1ccc(OCCN2CC(CF)C2)cc1" — what was its pIC50?
Return: 7.24

Enquiry: Sample COc1cc(F)ccc1[C@H]1CSc2c(ccc3[nH]ncc23)[C@H]1c1ccc(OCCN2CC(CF)C2)cc1 (racemic) — what was its pIC50?
Return: 8.13

Enquiry: Sample Oc1ccc2c(c1)SC[C@H](c1ccc(F)cc1F)[C@@H]2c1ccc(OCCN2CC(CF)C2)cc1 (racemic) — what was its pIC50?
Return: 9.22

Enquiry: Sample Oc1ccc2c(c1)OC[C@H](c1ccc(F)cc1F)[C@@H]2c1cc(F)c(OCCN2CC(CF)C2)c(F)c1 (racemic) — what was its pIC50?
Return: 8.85

Enquiry: Sample N#Cc1cc(F)ccc1[C@H]1COc2cc(O)ccc2[C@H]1c1ccc(OCCN2CC(CF)C2)cc1 (racemic) — what was its pIC50?
Return: 8.31

Enquiry: Sample CS(=O)(=O)N1CCC([C@H]2COc3cc(O)ccc3[C@H]2c2ccc(OCCN3CC(CF)C3)cc2)CC1 (racemic) — what was its pIC50?
Return: 8.21

Enquiry: Sample "Oc1ccc2c(c1)SC[C@@H](c1cc(F)c(F)cc1F)[C@H]2c1ccc(OCCN2CC(CF)C2)cc1" — what was its pIC50?
Return: 6.15

Enquiry: Sample Oc1ccc2c(c1)OC[C@H](c1ccc(F)cc1F)[C@@H]2c1ccc(OC2CN(CCCF)C2)cc1 (racemic) — what was its pIC50?
Return: 8.11

Enquiry: Sample FCC1CN(CCOc2ccc([C@@H]3c4ccc5[nH]ncc5c4SC[C@@H]3c3cc(F)c(F)cc3F)cc2)C1 (racemic) — what was its pIC50?
Return: 8.24

Enquiry: Sample Oc1ccc2c(c1)CCC[C@H](c1ccc(F)cc1F)[C@@H]2c1ccc(OCCN2CC(CF)C2)cc1 (racemic) — what was its pIC50?
Return: 7.72

Enquiry: Sample COc1cc(F)ccc1[C@H]1CS(=O)(=O)c2cc(O)ccc2[C@H]1c1ccc(OCCN2CC(CF)C2)cc1 (racemic) — what was its pIC50?
Return: 8.80

Enquiry: Sample Oc1ccc2c(c1)OC[C@H](c1ccc(F)cc1F)[C@@H]2c1ccc(O[C@H]2CCN(CCCF)C2)cc1 (racemic) — what was its pIC50?
Return: 8.11

Enquiry: Sample Oc1ccc2c(c1)OC[C@H](c1ccc(F)cc1F)[C@@H]2c1ccc(NC2CN(CCCF)C2)cc1 (racemic) — what was its pIC50?
Return: 8.51

Enquiry: Sample "O=C1CC[C@H](N2Cc3cc(N4CCN(CC5CCN(c6ccc([C@@H]7c8ccc(O)cc8CC[C@@H]7c7ccccc7)cc6)CC5)CC4)ccc3C2=O)C(=O)N1" — what was its pIC50?
Return: 8.57
